Target Under Test: PDE10 (UniProt Q9Y233)
Assay: PDE10 enzyme inhibition, IMAP TR-FRET assay (MPDE10A7 Enzyme Activity and Inhibition)
Assay type: biochemical
Condition Notes: IC50 class against PDE10; read-out: IC50
Experimental: All compounds were divided in five classes based on their IC50 values against PDE10. The range of the IC50 in each class is as follows: An IMAP TR-FRET assay was used to analyze the enzyme activity (Molecular Devices Corp., Sunnyvale Calif.). […] The plates were read on an Envision (Perkin Elmer, Waltham, Mass.) for time resolved fluorescence resonance energy transfer. The data were analyzed with GraphPad Prism (La Jolla, Calif.). […]
pIC50: −log10 of the molar value.
Assay Metric: pIC50

Task item: Record request: pIC50 value, item CC(C)n1c(C(=O)c2ccc(Oc3nccnc3N3CCOCC3)cc2)nc2ccccc21 [Example 6]
Reply: 7.00 to 7.60

Task item: Also O=C(c1ccc(Oc2nccnc2C(=O)NC2(Cc3ccccc3)CC2)cc1)c1nc2ccccc2[nH]1 [Example 260] ?
Reply: > 7.60

Task item: Okay, and CN1CCC(c2nccnc2Oc2ccc(Nc3nc4ccccc4s3)cc2)CC1 [Example 237] ?
Reply: > 7.60

Task item: Then this compound: c1ccc2sc(Nc3ccc(Oc4nccnc4-c4ccc(N5CCOCC5)nc4)cc3)nc2c1 [Example 138]
Reply: 6.60 to 7.00

Task item: Then this compound: COc1cc(-c2nccnc2Oc2ccc(Nc3nc4ccccc4s3)cc2)ccn1 [Example 152]
Reply: > 7.60

Task item: Thanks! And CC(C)(O)C1CCN(c2nccnc2Oc2ccc(Nc3nc4ccccc4s3)cc2)CC1 [Example 66] ?
Reply: > 7.60

Task item: Quick one: CN1CCC(c2nccnc2Oc2ccc(C(=O)c3nc4ccccc4[nH]3)cc2)=CC1=O [Example 252]
Reply: > 7.60

Task item: Note, next up: CC(F)C(=O)N1CCC(c2nccnc2Oc2ccc(Nc3nc4ccccc4s3)cc2)CC1 (stereo not shown) [Example 235]
Reply: > 7.60

Task item: Now give it for CC(C)(O)[C@@H]1CCCN1c1nccnc1Oc1ccc(Nc2nc3ccccc3s2)cc1 [Example 59] too.
Reply: > 7.60

Task item: Then what about the compound O=C(c1ccc(Oc2nccnc2C2(F)CCOCC2)cc1)c1nc2ccccc2[nH]1 [Example 203] ?
Reply: > 7.60

Task item: Same for OC1C=C(c2nccnc2Oc2ccc(Nc3nc4ccccc4s3)c(F)c2)CCC1 (racemic) [Example 137]
Reply: > 7.60

Task item: Moving on to the next compound: c1ccc2sc(Nc3ccc(Oc4nccnc4C4CCOC4)cc3)nc2c1 (stereo not shown) [Example 221]
Reply: > 7.60

Task item: Subsequent entry: c1ccc2sc(Nc3ccc(Oc4nccnc4NC4CCCOC4)cc3)nc2c1 (stereo not shown) [Example 58]
Reply: 7.00 to 7.60

###

Target Under Test: UniProt Q9Y233
Assay: PDE10 enzyme inhibition, IMAP TR-FRET assay (MPDE10A7 Enzyme Activity and Inhibition)
Type: biochemical
Condition Notes: IC50 class against PDE10; read-out: IC50
Assay Metric: IC50

Task item: Given the molecule `CC(C)Oc1nccnc1Oc1ccc(C(=O)c2nc3ccccc3[nH]2)cc1` , what is its reported IC50?
Reply: 1000 to 5000 nM

Task item: Next molecule up: O[C@H]1CCC[C@@H](c2nccnc2Oc2ccc(Nc3nc4ccccc4s3)cc2)C1 (racemic)
Reply: < 25 nM

Task item: Would you mind doing `OCCN1CCN(c2nccnc2Oc2ccc(Nc3nc4ccccc4s3)cc2)CC1` as well?
Reply: < 25 nM

Task item: Could you do the same for `COc1ncccc1-c1nccnc1Oc1ccc(C(=O)c2nc3ccccc3[nH]2)cc1` , please?
Reply: < 25 nM

Task item: Next molecule up: `C[C@]1(O)CC[C@@H](c2nccnc2Oc2ccc(C(=O)c3nc4ccccc4[nH]3)cc2)CC1`
Reply: < 25 nM
